- Assay Target: UniProt:P30543
- Sequence (P30543 whole entry): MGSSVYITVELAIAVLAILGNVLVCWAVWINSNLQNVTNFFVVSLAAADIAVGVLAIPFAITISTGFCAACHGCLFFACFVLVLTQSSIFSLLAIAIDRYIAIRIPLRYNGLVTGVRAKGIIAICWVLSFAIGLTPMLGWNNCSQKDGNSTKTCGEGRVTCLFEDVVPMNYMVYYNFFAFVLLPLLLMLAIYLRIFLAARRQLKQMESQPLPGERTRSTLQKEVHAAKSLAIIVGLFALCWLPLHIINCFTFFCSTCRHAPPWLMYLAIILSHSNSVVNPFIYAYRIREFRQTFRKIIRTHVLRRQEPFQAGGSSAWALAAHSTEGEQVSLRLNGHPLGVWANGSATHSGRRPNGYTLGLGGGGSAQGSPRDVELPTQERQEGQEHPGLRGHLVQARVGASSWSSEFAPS
- Protocol: Compound at 10 uM displacement of [3H]CGS-21680 from adenosine A2A receptor in rat striatal membrane
- Assay type: cell membranes
- Experimental Conditions: Striatum
Endpoint Name: Displacement
Entry format: amount then unit.

O=C(Nc1ccccc1)Nc1nc(-c2ccccn2)nc2ccccc12	2%
COc1ccc(NC(=O)Nc2nc(-c3ccccc3)nc3ccccc23)cc1	11%
O=C(Nc1nc(-c2ccccn2)cc2ccccc12)c1ccccc1	0%
O=C(Nc1ccccc1)Nc1ncnc2ccccc12	42%

Lab note: need Displacement for Cc1ccc(NC(=O)Nc2nc(-c3ccccc3)nc3ccccc23)cc1 on UniProt:P30543, anyone have it?
3%

Short answer please: Displacement, UniProt:P30543, entry O=C(Nc1ccccc1)Nc1nc(-c2ccccn2)cc2ccccc12
9%

Give recorded Displacement with UniProt:P30543 for the following molecule: O=C(Nc1ccccc1)Nc1nc(-c2cccnc2)nc2ccccc12
42%

Form entry - test system: UniProt:P30543; read-out: Displacement; molecule: CC(C)(C)c1nc(NC(=O)Nc2ccccc2)c2ccccc2n1
19%

Give recorded Displacement with UniProt:P30543 for the following molecule: O=C(Nc1ccc(Cl)cc1)Nc1nc(-c2ccccc2)nc2ccccc12
24%

Requested read-out Displacement, target or system UniProt:P30543, entry O=C(Nc1ccccc1)Nc1nc(-c2ccccc2)cc2ccccc12
9%

Request: Displacement, test system UniProt:P30543, entry COc1cccc(NC(=O)Nc2nc(-c3ccccc3)nc3ccccc23)c1
0%
